Recorded measurements of GI50, one per entry
Test system: OVCAR3 cells
Experiment: MTT proliferation assay, OVCAR3;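 also: compound given as an 8- or 10-point series, one day after plating, with exposure covering roughly 3-4 cell doublings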
Type: cell-based
Conditions: 5 days compound exposure, 1:3 serial dilution starting at 10 μM
*1 amine or outer side, *2 acyl side, *3 side chain or, on linkers, in order; H or OH if unused. Where a SMILES comes first, the peptide text is derived from it. Bridges are numbered along the chain shown (N, C = ends). [ ]: non-standard residue; d: D form. The star is where a group is joined. NMehhhLys(Me) = CN([C@@H](CCCCCCCN(C)[*:3])C(=O)[*:2])[*:1]; Oxane2carbonyl(2R-CF3) = O=C([C@@]1(C(F)(F)F)CCCCO1)*; X25 = CCOc1ncc(Cl)cc1C[C@@H](C(=O)[*:2])N(C)[*:1]; Pro(trans-4-F) = O=C(O)[C@@H]1C[C@@H](F)CN1; Gly(cPr) = N[C@H](C(=O)O)C1CC1

| compound | GI50 |
| --- | --- |
| CC(C)C[C@@H]1NC(=O)[C@@H](N(C)C(=O)[C@@H](NC(=O)[C@@H]2C[C@@H](F)CN2C(=O)C2(C(F)(F)F)CC(F)(F)C2)C2CC2)C/C=C\CCCCN(C)C(=O)[C@H](Cc2cc(Cl)ccc2-c2cnn(C)c2)N(C)C1=O [Example 168] | 10 nM |
| CCOc1ncc(Cl)cc1C[C@H]1C(=O)N(C)CCCCCCC[C@H](N(C)C(=O)[C@@H](NC(=O)[C@@H]2C[C@@H](F)CN2C(=O)[C@@]2(C(F)(F)F)CCCCO2)C2CC2)C(=O)N[C@@H](CC(C)C)C(=O)N1C [Example 226] ({Oxane2carbonyl(2R-CF3)}-[Pro(trans-4-F)][Gly(cPr)][NMehhhLys(Me)]L[X25]; lactam 3-C) | 30 nM |
